tested on: W2; experiment: qHTS profiling for inhibitors of Plasmodium falciparum proliferation (AID 504749); also: nearly all actives have a fitted effect of over 60% in size; details: P. falciparum in erythrocytes, SYBR Green DNA, 72 h; series mostly up to 28.7 µM
Inconclusive results are not listed. Active and inactive are the calls of the source. Calls follow the shape of the dose curve; as a rule, active = well fitted inhibition curve with a large enough effect; inconclusive = small, poorly fitted or top-dose-only effect; inactive = flat fitted curve, though single readings scatter.
Choose the fitting class; nothing outside yes (active), no (inactive) is accepted.

Example results:
molecule	category label
CN(CCCN1c2ccccc2CCc2ccccc21)CC(=O)c1ccc(Cl)cc1	yes
OC1C(O)C(O)C(O)C(O)C1O (configuration not stated)	no
Cc1ccccc1OCC(O)CO (configuration not stated)	no
CC(=O)NCCCCCC(=O)O	no
COP(=O)(OC)OC(c1ccc(Cl)cc1)P(=O)(OC)OC (configuration not stated)	no
COc1ccccc1N1CCN(CCCCNC(=O)c2ccc(-c3ccc(C(C)=O)cc3)cc2)CC1	no
Cc1nc(-c2ccc(Cl)cc2)oc1COC(C)(C)C(=O)O	no
CNCCCCOc1ccccc1Cc1ccccc1	yes

// return assay outcome for `CCOCCn1c(N2CCCN(C)CC2)nc2ccccc21`
yes

// return assay outcome for `CCN(CC)CCOc1ccccc1C(=O)CCc1ccccc1`
yes

// return assay outcome for FC1(F)C(F)(F)C(F)(F)C2(F)C(F)(F)C(F)(F)C(F)(F)C(F)(F)C2(F)C1(F)F (configuration not stated)
no

// return assay outcome for `CCc1oc2ccccc2c1C(=O)c1cc(I)c(O)c(I)c1`
no

----------
system: TAB113; assay: qHTS profiling for inhibitors of Plasmodium falciparum proliferation (AID 504749); also: nearly all actives have a fitted effect of over 60% in size; conditions: P. falciparum in erythrocytes, SYBR Green DNA, 72 h; series mostly up to 28.7 µM
Records with an inconclusive call do not appear. Active and inactive are the calls of the source. Calls follow the shape of the dose curve; as a rule, active = well fitted inhibition curve with a large enough effect; inconclusive = small, poorly fitted or top-dose-only effect; inactive = flat fitted curve, though single readings scatter.
Choose the fitting class; nothing outside TRUE (active), FALSE (inactive) is accepted.

// return assay outcome for CCCCC(CC)COC(=O)c1ccc(N(C)C)cc1 (stereo not drawn)
FALSE

// return assay outcome for `Cl/C(=C\n1cncn1)c1ccc(Cl)cc1Cl`
FALSE

// return assay outcome for `COc1ccc(-c2cc(C(F)F)nn2-c2ccc(S(N)(=O)=O)cc2)cc1F`
FALSE

// return assay outcome for `NC(=S)N/N=C/c1cccnc1`
FALSE

// return assay outcome for `O=C(Nc1ncc([N+](=O)[O-])s1)c1cccs1`
FALSE

// return assay outcome for `C#C[C@]1(O)CC[C@H]2[C@@H]3CCC4=CC(=O)CC[C@@H]4[C@H]3CC[C@@]21CC`
FALSE

// return assay outcome for `Cc1cc(NS(=O)(=O)c2ccc(N)cc2)nc(C)n1`
FALSE

// return assay outcome for `CCN1/C(=C/C=C/c2sc3ccccc3[n+]2CC)Sc2ccccc21`
TRUE

// return assay outcome for `COc1ccc(C(=O)c2ccccc2O)c(O)c1`
FALSE

----------
system: MKL-1; assay: qHTS assay to identify novel small-molecules to repurpose for Merkel cell carcinoma treatment (AID 1296009); conditions: MCC and control cell lines, CellTiter-Glo viability, 72 h; series mostly up to 46 µM; also: nearly all actives have a fitted effect of over 60% in size
Results filed as inconclusive are left out. Active and inactive are the calls of the source. Calls follow the shape of the dose curve; as a rule, active = well fitted inhibition curve with a large enough effect; inconclusive = small, poorly fitted or top-dose-only effect; inactive = flat fitted curve, though single readings scatter.
Choose the fitting class; nothing outside active, inactive is accepted.

Example results:
compound	subject of test	category label
CC[C@H](c1ccc(O)cc1)[C@@H](CC)c1ccc(O)cc1	MKL-1	inactive
COc1cc(C(=O)NCc2ccc(OCCN(C)C)cc2)cc(OC)c1OC	MKL-1	inactive
CCC(CC)(CC(=O)Nc1cccc(/C=C/c2nc(C3CCC3)cs2)c1)C(=O)O	MKL-1	inactive
CCN(CC)CCOc1ccc2c(c1)C(=O)c1cc(OCCN(CC)CC)ccc1-2	MKL-1	active
Cc1cn([C@H]2C[C@H](F)[C@@H](CO)O2)c(=O)[nH]c1=O	MKL-1	inactive

// return assay outcome for `C#C[C@]1(O)CC[C@H]2[C@@H]3CCc4cc(OC)ccc4[C@H]3CC[C@@]21C`
inactive

// return assay outcome for NS(=O)(=O)c1cc2c(cc1Cl)NC(CC1CCCC1)NS2(=O)=O (configuration not stated)
inactive

----------
assay: qHTS of pediatric cancer cell lines to identify multiple opportunities for drug repurposing: Confirmatory screen for control Hh wild type fibroblast cells (AID 1347121); conditions: viability qHTS; series mostly up to 45.9 µM; also: nearly all actives have a fitted effect of over 70% in size
Records with an inconclusive call do not appear. The source made the active and inactive calls. Calls come from the whole dose curve; as a rule, active = well fitted cell-killing curve with a large enough effect; inconclusive = small, poorly fitted or top-dose-only effect, or effect the other way; inactive = flat fitted curve, though single readings scatter.
Choose the fitting class; nothing outside y for active, n for inactive is accepted.

compound	category label
CCN1/C(=C/C=C/c2sc3ccccc3[n+]2CC)Sc2ccccc21	y
CCN(CC)CCOc1ccc2c(c1)C(=O)c1cc(OCCN(CC)CC)ccc1-2	n
O=C(CCCN1CC=C(n2c(=O)[nH]c3ccccc32)CC1)c1ccc(F)cc1	n
CC1CCc2c(N3CCC(O)CC3)c(F)cc3c(=O)c(C(=O)O)cn1c23 (stereo unspecified)	n

// return assay outcome for `O=C(Oc1cccc2cccnc12)c1ccccc1`
n

// return assay outcome for `O=[N+]([O-])c1ccc(/C=N\O)o1`
n

----------
assay: qHTS Assay for Identifying Gametocytocidal Compounds (AID 743244);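 also: % is scaled to controls: 0 for no effect and ±100 for the full control effect; actives lower the fluorescent signal which means gametocytes are killed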; settings: P. falciparum 3D7 stage III-V gametocytes, alamarBlue, 72 h; active compounds read low
Records with an inconclusive call do not appear.
reported property: max response (%)
Dear colleague, please return just the value in %, with no unit written.

compound	meas value
CCOC(=O)c1ccc(N)cc1	11.9

Would you kindly look at the next entry?
# max response of `NS(=O)(=O)c1cc(C(=O)O)cc(N2CCCC2)c1Oc1ccccc1` = -3.9

----------
Tested on: UISO
Assay: qHTS assay to identify novel small-molecules to repurpose for Merkel cell carcinoma treatment (AID 1296009); also: nearly all actives have a fitted effect of over 60% in size
Conditions: MCC and control cell lines, CellTiter-Glo viability, 72 h; series mostly up to 46 µM
Source text: MCC is a rare and aggressive neuroendocrine skin cancer with limited treatment options. Approximately 80% of MCCs have the Merkel cell polyomavirus (MCPyV) DNA integrated into the host genome (virus-positive: VP-MCC) and viral oncogenes drive oncogenesis. The remaining MCCs are virus-negative (VN-MCC) and are caused by UV mutagenesis. […] Using cell viability as a readout (CellTiter-Glo assay) we found both overlapping and distinct drugs that can be repurposed for the treatment of VP-MCC and VN-MCC. […]
Records with an inconclusive call do not appear. The source made the active and inactive calls. Calls follow the shape of the dose curve; as a rule, active = well fitted inhibition curve with a large enough effect; inconclusive = small, poorly fitted or top-dose-only effect; inactive = flat fitted curve, though single readings scatter.
Choose the fitting class; nothing outside t = active, f = inactive is accepted.

compound	category label
CCN(CC)CCNc1ccc(CO)c2sc3ccccc3c(=O)c12	t
CCCCCCCCCCCCCC(=O)OC(C)C	f

// return assay outcome for `O=C(Nc1ccc([N+](=O)[O-])cc1)Nc1ccc([N+](=O)[O-])cc1`
f

// return assay outcome for `CCCCCCCC/C=C\CCCCCCCCN`
f

// return assay outcome for `Cl/C(=C\n1cncn1)c1ccc(Cl)cc1Cl`
f

// return assay outcome for `COc1cc(NS(=O)(=O)c2ccc(N)cc2)ncn1`
f

// return assay outcome for `CCCCCCCCCCCCCC[N+](C)(C)Cc1ccccc1`
t

// return assay outcome for `COc1ccc2c(c1)c1c3n2CCN(C)C3=NCC1`
f

// return assay outcome for `C[C@H]1[C@H]2CC[C@H]3[C@@H]4CC=C5C[C@@H](N(C)C)CC[C@]5(C)[C@H]4CC[C@]23CN1C`
f

// return assay outcome for `CC(=O)Nc1ccc(S(=O)(=O)Nc2ccc([N+](=O)[O-])cc2)cc1`
f

// return assay outcome for CC1CCc2c(N3CCC(O)CC3)c(F)cc3c(=O)c(C(=O)O)cn1c23 (stereo unspecified)
f

----------
tested on: CP192; test: qHTS profiling for inhibitors of Plasmodium falciparum proliferation (AID 504749); also: nearly all actives have a fitted effect of over 60% in size; settings: P. falciparum in erythrocytes, SYBR Green DNA, 72 h; series mostly up to 28.7 µM
Results filed as inconclusive are left out. Calls of active or inactive are those of the source. The call rests on the fitted dose curve; in most records, active means well fitted inhibition curve with a large enough effect; inconclusive means small, poorly fitted or top-dose-only effect; inactive means flat fitted curve, though single readings scatter.
reported property: outcome

Field: example entries. Status: answers known.
molecule	subject of test	outcome
CC(=O)NCCCCCC(=O)O	CP192	inactive
COc1ccc(CN(CCN(C)C)c2ncccn2)cc1	CP192	inactive
CC(=O)Nc1ccc(S(=O)(=O)Nc2ccc([N+](=O)[O-])cc2)cc1	CP192	inactive
CC(=O)N[C@@H](CCC(=O)O)C(=O)O	CP192	inactive

Would you kindly look at the next entry?
# outcome of CCC(C(=O)OCCOCCN(CC)CC)c1ccccc1 (centres undefined) = inactive

----------
assay: Primary qHTS for inhibitors of nuclear receptor binding SET domain protein 2 (NSD2) in an RCH-ACV wild type WT cells (2C) (AID 1645877); settings: RCH-ACV (leukaemia line) NSD2 WT (2C) viability, CellTiter-Glo, 72 h; series mostly up to 44.9 µM; also: nearly all actives have a fitted effect of over 70% in size
Records with an inconclusive call do not appear. Activity calls are given as the source filed them. Calls come from the whole dose curve; as a rule, active = well fitted inhibition curve with a large enough effect; inconclusive = small, poorly fitted or top-dose-only effect; inactive = no such curve, though single readings can be large or run the other way.
Choose the fitting class; nothing outside active, inactive is accepted.

compound	category label
CC[C@H](c1ccc(O)cc1)[C@@H](CC)c1ccc(O)cc1	active
Nc1nc(N)c(-c2ccccc2)s1	inactive
Clc1cccc(C(c2ccc3nc[nH]c3c2)n2ccnc2)c1 (centres undefined)	inactive
CCCN(CCC)S(=O)(=O)c1ccc(C(=O)O)cc1	inactive
CCOC(=O)[C@H](CCc1ccccc1)N[C@@H](C)C(=O)N1[C@H](C(=O)O)C[C@@H]2CCC[C@@H]21	inactive

// return assay outcome for `CC1=C(C(=O)O)N2C(=O)[C@@H](NC(=O)[C@H](N)c3ccccc3)[C@H]2SC1`
inactive

// return assay outcome for `CCCCCCCCCCCCCCCCO`
inactive

// return assay outcome for `CC(=O)NO`
inactive

// return assay outcome for `CCOc1cc(OCC)c(C(=O)CCC(=O)O)cc1OCC`
inactive

// return assay outcome for `CC(=O)Oc1ccc(C)cc1`
inactive

// return assay outcome for `COc1cc(C)nc(-n2nc(C)cc2OC)n1`
inactive

// return assay outcome for `NC(=O)C1(N2CCCCC2)CCN(CCCC(=O)c2ccc(F)cc2)CC1`
inactive

// return assay outcome for `CC(=O)Nc1ccc(S(=O)(=O)Nc2ccc([N+](=O)[O-])cc2)cc1`
inactive

// return assay outcome for `FC(F)(F)C(F)(F)C(F)(F)C(F)(F)C(F)(F)C(F)(F)C(F)(F)C(F)(F)Br`
inactive

// return assay outcome for `O=C(O)c1ccc(S(=O)(=O)N(Cl)Cl)cc1`
inactive

// return assay outcome for `CN1CCN(CCC(=O)N2c3ccccc3Sc3ccc(C(F)(F)F)cc32)CC1`
active

// return assay outcome for `CC(=O)N[C@@H](CCC(=O)O)C(=O)O`
inactive

// return assay outcome for CCCCC(CC)COC(=O)/C=C/c1ccc(OC)cc1 (centres undefined)
inactive

// return assay outcome for CC(O)Cn1cnc2c1c(=O)n(C)c(=O)n2C (centres undefined)
inactive

// return assay outcome for C[N+]12CCC(CC1)C(OC(=O)C(O)(c1ccccc1)c1ccccc1)C2 (centres undefined)
inactive

// return assay outcome for OC1C(O)C(O)C(O)C(O)C1O (centres undefined)
inactive

// return assay outcome for `Nc1nc(-c2ccccc2)c(Br)c(=O)[nH]1`
inactive

// return assay outcome for NS(=O)(=O)c1cc2c(cc1Cl)NC(CC1CCCC1)NS2(=O)=O (centres undefined)
inactive
